target: Estrogen receptor (Homo sapiens); test: CCTE_Deisenroth_AIME_384WELL_LUC_Inactive: CCTE's 384-well Estrogen Receptor Transactivation Assay without AIME metabolic competence (ERTA luciferase; metabolism negative), Deisenroth Lab (AID 2284038);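 further: VM7Luc4E2 breast cells given medium preincubated 2 h with S9-free microspheres; hits raise estrogen receptor luciferase signal so potencies reflect agonists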
Inconclusive results are not listed. Calls of active or inactive are those of the source. How the source made its calls: active means hit-call score of the fitted dose curve at least 0.9, where 1 is the maximum; inconclusive means response in the unintended direction; inactive means score below 0.9.
One label from this list, please: 1.0 (active), 0.0 (inactive)

Past entries and their recorded results:
{"compound": "COS(=O)(=O)OC", "test_target": "Estrogen receptor (Homo sapiens)", "answer_label": 0.0}
{"compound": "Cc1cc(-c2ccc(N)c(C)c2)ccc1N", "test_target": "Estrogen receptor (Homo sapiens)", "answer_label": 1.0}
{"compound": "O=C(O)C(F)(F)C(F)(F)C(F)(F)C(F)(F)C(F)(F)C(F)(F)C(F)(F)C(F)(F)F", "test_target": "Estrogen receptor (Homo sapiens)", "answer_label": 0.0}
{"compound": "Nc1ccc(-c2ccc(N)cc2)cc1", "test_target": "Estrogen receptor (Homo sapiens)", "answer_label": 0.0}
{"compound": "Cc1ccccc1O", "test_target": "Estrogen receptor (Homo sapiens)", "answer_label": 0.0}

Could you now look at the following compound, please?
Hello, I am checking results. What call was entered for Clc1ccc(C(Cl)(Cl)Cl)cc1 ?
0.0

====

read-out: Monokine induced gamma interferon (MIG), CXCL9 (gene 4283); assay: BSK_CASM3C_MIG: BioMAP Diversity Plus: CASM3C Assay for Monokine induced gamma interferon (MIG) Biomarker Activity (AID 2283048); settings: primary human coronary artery smooth muscle cells; actives raise or lower the signal;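 further: MIG protein level measured by ELISA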
Activity calls are given as the source filed them. How the source made its calls: active means hit-call score of the fitted dose curve at least 0.9, where 1 is the maximum; inactive means score below 0.9.
One label from this list, please: active, inactive

{"compound": "O=C(O)C(F)(F)C(F)(F)C(F)(F)C(F)(F)C(F)(F)C(F)(F)C(F)(F)C(F)(F)F", "answer_label": "inactive"}
{"compound": "CCNc1nc(NC(C)C)nc(SC)n1", "answer_label": "inactive"}
{"compound": "CCCCCCCCCc1ccc(O)cc1", "answer_label": "active"}
{"compound": "CCOP(=S)(OCC)SCSC(C)(C)C", "answer_label": "inactive"}
{"compound": "Oc1c(Cl)c(Cl)c(Cl)c(Cl)c1Cl", "answer_label": "inactive"}

Hello, I am checking results. What call was entered for O=S(=O)(O)C(F)(F)C(F)(F)C(F)(F)C(F)(F)F ?
inactive

Hello, I am checking results. What call was entered for Clc1ccc(C(c2ccccc2Cl)C(Cl)(Cl)Cl)cc1 (stereo not drawn) ?
inactive

Hello, I am checking results. What call was entered for Clc1ccc(Cl)cc1 ?
inactive

====

read-out: Human Leukocyte Antigen - DR isotype (HLADR), HLA-DRA (gene 3122); test: BSK_BE3C_HLADR: BioMAP Diversity Plus: BE3C Assay for Human Leukocyte Antigen - DR isotype (HLADR) Biomarker Activity (AID 2283032); conditions: primary human bronchial epithelial cells; actives raise or lower the signal
Activity calls are given as the source filed them. Rule for the calls: active = hit-call score of the fitted dose curve at least 0.9, where 1 is the maximum; inactive = score below 0.9.
One label from this list, please: active, inactive

Past entries and their recorded results:
{"molecular_string": "CCOC(=O)C(O)(c1ccc(Cl)cc1)c1ccc(Cl)cc1", "answer_label": "inactive"}
{"molecular_string": "Clc1ccc(Cl)cc1", "answer_label": "inactive"}
{"molecular_string": "CO/C=C(/C(=O)OC)c1ccccc1COc1cccc(C(F)(F)F)n1", "answer_label": "inactive"}
{"molecular_string": "C[C@]12CCC(=O)C=C1CC[C@@H]1[C@@H]2CC[C@@]2(C)[C@H]1CC[C@]2(C)O", "answer_label": "inactive"}

Hello, I am checking results. What call was entered for CC(c1ccc(O)cc1)(c1ccc(O)cc1)c1ccc(O)cc1 ?
active
